system.name: T1, mouse secretagogin R198A (mouse, UniProt Q91WD9 1-276, R198A)
T1 sequence: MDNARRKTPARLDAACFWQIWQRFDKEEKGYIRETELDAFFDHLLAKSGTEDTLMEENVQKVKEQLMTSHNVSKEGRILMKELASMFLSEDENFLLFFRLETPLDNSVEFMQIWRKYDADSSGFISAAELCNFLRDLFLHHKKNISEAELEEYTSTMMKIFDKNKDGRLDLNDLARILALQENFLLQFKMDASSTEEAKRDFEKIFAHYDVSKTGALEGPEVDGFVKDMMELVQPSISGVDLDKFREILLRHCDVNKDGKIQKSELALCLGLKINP
test: ITC
readout.name: Kd
Answer shape: numeric part, then the unit.

[Q] // lookup Kd for TPLPEESMKQGLQNLREEIKQLGREVRAQLKAIEPQKE (domain or fragment) [helix-b of the Habc domain of mouse syntaxin-4]
[A] 808 nM
